Every entry's value here was drawn from PubChem BioAssay (NCI).

The following molecules are shown together with reported growth inhibition values.
test: NCI Yeast Anticancer Drug Screen. Data for the cln2 rad14 strain (AID 165);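 further: 0% = growth equal to vehicle treated cultures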
experimental-setup: S. cerevisiae cln2 rad14 strain, at 50.0 µM, stronger effect = higher value
This is part of a sample that, as a whole, favours compounds with a hit. Of some 79,000 tested, about 15% had one in any assay.

| molecule | growth inhibition / % |
| --- | --- |
| C/C(CC1CCCCC1)=N\NC(N)=O | 13.2 |
| CCOC(=O)c1c(C)csc1NC(=O)CSCC(=O)OC | 19.9 |
| Cc1cccc2c1Oc1ccccc1C2N1C(=O)/C(=C/c2ccc(Cl)c(Cl)c2)SC1=S (configuration not stated) | 33.8 |
| CCCc1nc(CCC)nc(CCC)n1 | -6.5 |
| C[N+]12C=CC=C1C(N1CCCC1)c1sc(-c3ccc(Cl)cc3)cc12 (configuration not stated) | 7.3 |
| OCCN(CCO)c1ccc(-n2cnc3c(=S)nc[nH]c32)cc1 | -43.8 |
| Cc1ccc(Cc2nn(C)c(=O)n2N)cc1 | -3 |
| COc1cc(C=Nc2ccc(C(C)C)cc2)cc(OC)c1OC | 8.35 |
| CSc1nc(C)cc(Nc2ccc(O)c(CN3CCOCC3)c2)n1 | -33.1 |
| c1ccc(C2=NN3CN(N2)c2ccccc2OCCCOc2ccccc23)cc1 | 12.8 |
| Nc1cccc(N)n1.[Cu+2] | -13.2 |
| O=C(Nc1cccc2ccccc12)OC1CCCC1 | -53.7 |

* * *

test: NCI Yeast Anticancer Drug Screen. Data for the cln2 rad14 strain (AID 165);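 further: 0% = growth equal to vehicle treated cultures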
experimental-setup: S. cerevisiae cln2 rad14 strain, at 50.0 µM
The panel holds about 79,000 compounds, 15% with a hit somewhere; the sample as a whole holds those more often. Activity calls are given as the source filed them. No stated cut-off is given here; in the data, active means growth inhibition above about 70%; inactive means the rest.
Labels: active, inactive

| molecule | label-class |
| --- | --- |
| C[N+](C)(C)/N=C(/c1ccccc1)C1CCCCC1 | inactive |
| O=C(NNC(=O)c1cccc2ccccc12)c1cccc(Cl)c1 | inactive |
| CCCCN(C)C(=O)C1=C(C)NC(C)=C(C(=O)N(C)CCCC)C1 | inactive |
| Cc1ccc(CCOS(=O)(=O)c2ccc(C)cc2)cc1 | inactive |
| CN1C=CC(=Cc2ccccc2)C=C1 | inactive |
| N#C/C(=C\NC(N)=S)c1nc2ccccc2s1 | inactive |
| CCn1c(=NC(=O)c2ccccc2O)sc2ccccc21 | inactive |
| CCOC(=O)NC(NC(=O)OCC)c1ccc(OC)cc1 | inactive |
| Cc1ccc(NC(=O)NC23CC4CC(CC(F)(C4)C2)C3)cc1 | inactive |
| CN(C)CCNc1ccc2nnn3c4ccccc4c(=O)c1c23 | inactive |
| c1ccc(-c2ccc3ncccc3c2)cc1 | inactive |
| CN(C)Cc1cc(N=Nc2ccc(Cl)cc2)ccc1O | inactive |
| S=C(Sc1nc2ccccc2s1)Sc1nc2ccccc2s1 | active |
| COc1cc(OC)c2c(=O)cc(-c3ccc(OC)c(OC)c3OC)oc2c1 | inactive |
| CCOC(=O)/C(Cc1cnc2ccccc2n1)=N\O | inactive |
| COC(=O)NC1(NC(=O)OC)NC(=O)c2cc(OC)c(OC)c(OC)c2N1 | inactive |
| Cc1cc2nn(C3CCCCO3)nc2cc1C (centres undefined) | inactive |
| O=C1OCC2C(=O)N3Cc4cc5ccccc5nc4C3CC12 (centres undefined) | inactive |
| CCOc1cc2c(cc1O)CC[C@@H]1[C@@H]2CC[C@]2(C)C(N)CC[C@@H]12 (some centres undefined) | inactive |
| CC1=C(C(=O)Nc2ccccc2C)C(c2ccc(Cl)cc2)C(C(=O)Nc2ccccc2C)=C(C)N1 | inactive |
| O/N=C(\C(=N/O)Nc1ccc(-c2ccc(NC(=N/O)/C(=N\O)c3ccccc3)cc2)cc1)c1ccccc1 | inactive |
| c1ccc2c(c1)C1OC2c2ccccc21 | inactive |
| c1cc(-c2cc(-c3cc(-c4ccncc4)n[nH]3)[nH]n2)ccn1 | inactive |
| CN(C)CCCN1CCc2c([nH]c3ccccc23)C1c1cccnc1 (centres undefined) | inactive |

* * *

test: NCI Yeast Anticancer Drug Screen. Data for the cln2 rad14 strain (AID 165);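 further: 0% = growth equal to vehicle treated cultures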
experimental-setup: S. cerevisiae cln2 rad14 strain, at 50.0 µM, stronger effect = higher value
The panel holds about 79,000 compounds, 15% with a hit somewhere; the sample as a whole holds those more often.
Class TRUE: growth inhibition at least -10%. Class FALSE: growth inhibition below -10%.

| compound | label-class |
| --- | --- |
| CCOP(=O)(OCC)c1c(C(=O)OC)cc(=O)[nH]c1-c1ccc(C)cc1 | TRUE |
| Cc1ccc(SCc2ccc(Cl)cc2)nn1 | FALSE |
| C=CCSc1nc2ccc(NCn3c(=S)sc4ccccc43)cc2s1 | TRUE |
| Cn1c(=O)nc(N)n(NC(=O)CCl)c1=O | TRUE |
| CC(C)(c1ccc([N+](=O)[O-])cc1)c1ccc(N)c([N+](=O)[O-])c1 | TRUE |
| CN(CC(=O)C(O)C(O)C(O)CO)c1ccccc1 (centres undefined) | FALSE |
| CCCCCCCCNC(=O)CBr | FALSE |
| C1=CC(c2ccccc2)C(c2ccccc2)C(c2ccccc2)=C1 (centres undefined) | FALSE |
| CCOC(=O)C1=CC(C)(C(=O)OCC)Nc2c(nc(N)[nH]c2=O)N1 (centres undefined) | TRUE |
| COC(=O)C(O)C(O)C(O)C(O)C(=O)OC (centres undefined) | TRUE |
| NC(=O)NC(c1ccc(O)cc1)c1cc2c(cc1O)OCO2 (centres undefined) | FALSE |
| O=C1NC(N2CCCC(CO)C2)=N/C1=C\c1ccccc1 (centres undefined) | TRUE |
| O=C(O)[C@H](CSSC[C@@H](C(=O)O)N1C(=O)c2ccccc2C1=O)N1C(=O)c2ccccc2C1=O | TRUE |
| Cc1nc2ccc(Cl)cc2c(-n2ccnc2)c1CCn1ccnc1 | TRUE |
| CC(=O)CCc1ccc(OC(=O)C(Cl)Cl)cc1 | TRUE |
| COc1ccc(C2(C)c3ccccc3C(=O)C(C)(C)C2(C)CC(=O)O)cc1 (centres undefined) | TRUE |
| CCOC(=O)Nc1cc(Nc2ccc(Cl)cc2)c2nc(-c3ccc(Cl)cc3)c(-c3ccc(Cl)cc3)nc2n1 | TRUE |
| COC(=O)c1c(O)cc(OC)cc1OCc1ccccc1 | TRUE |
| CCCNC(=O)c1cccc2c1-c1ccccc1C2=O | TRUE |
| O=C(c1cccs1)N(C(=S)N1CCN(c2ccccc2)CC1)c1ccccc1 | TRUE |
| O=C(O)c1cc(C(=O)O)nc(C(=O)O)c1 | FALSE |
| CC1(C)OC2C(CO)OC(n3ccc(N)nc3=O)C2O1 (centres undefined) | FALSE |
| OC1(c2ccccc2)c2ccccc2Oc2cc(Cl)ccc21 (centres undefined) | TRUE |
| CCC1(CCBr)C(=O)NC(=Nc2ccccc2)NC1=O (centres undefined) | FALSE |

* * *

test: NCI Yeast Anticancer Drug Screen. Data for the mec2-1 strain (AID 157)
experimental-setup: S. cerevisiae mec2-1 strain, at 50.0 µM, stronger effect = higher value
About 79,000 compounds went through this panel and 15% of them were active in at least one assay; those are over-represented in the sample as a whole. Where a SMILES comes first, the peptide text is derived from it. Bridges are numbered along the chain shown (N, C = ends).
Consider the following molecules and their measured growth inhibition readings.
measured-parameter: growth inhibition (%)

| molecule | measured-parameter | test-value |
| --- | --- | --- |
| CC[N+]1(C)CCC(O)(c2ccccc2)C(C(=O)c2ccccc2)C1 (stereo unspecified) | growth inhibition | -6.1 |
| CCOC(=O)C1CSSCC(N)C(=O)N1 (stereo not drawn) (H-Cys-Cys-OEt; disulfide 1-2; configuration not given here) | growth inhibition | -1.25 |
| COC(=O)C1C2CC3C(OC(=O)C31)C2OC(=O)[C@](OC)(c1ccccc1)C(F)(F)F (stereo partly specified) | growth inhibition | 20.9 |
| CCOC(=O)NC(NC(=O)OCC)c1ccc(OC)cc1 | growth inhibition | -1.95 |
| CC(C)(C)c1ccnc(C(O)(C(F)(F)F)C(F)(F)F)c1 | growth inhibition | -12.2 |
| O=c1nc2oc(-c3ccccc3)cn2c(=O)n1-c1ncc(-c2ccccc2)o1 | growth inhibition | -6.9 |
| CC(=O)Nc1c(CCCCc2ccccc2)[nH]c(=O)[nH]c1=O | growth inhibition | 22.5 |
| C[Si](C)(C)C#CCOC=C1CC1 | growth inhibition | -39.5 |
| CCOC(=O)Nc1c2ccccc2c(NC(=O)OCC)c2cc(Cl)ccc12 | growth inhibition | -1.75 |
| O=C(c1ccccc1)C(N=Nc1ccccc1)(c1ccccc1)c1ccccc1 | growth inhibition | -6 |
| O=C1C2C3C=CC(CC3)C2C(=O)C2C3C=CC(C3)C12 (stereo unspecified) | growth inhibition | 24.1 |
| COC(OC)(c1ccccc1)c1ccccc1 | growth inhibition | -27.4 |
| Oc1ccc(N2CCOCC2)cc1 | growth inhibition | 16.8 |
| O=C(NC(CO)CO)c1ccc2cc(C(=O)N3CC(CCl)c4ccc([N+](=O)[O-])cc43)[nH]c2c1 (stereo unspecified) | growth inhibition | -35.8 |
| COc1ccc(Br)cc1/C=N/N=C/c1cc(Br)ccc1OC | growth inhibition | -21.6 |
| CCOC1(OCC)C(=O)N(c2ccc(Cl)c(Cl)c2)C(=O)N1c1ccc(Cl)c(Cl)c1 | growth inhibition | 1.4 |
| CCN(CC)C(COC(=O)Nc1ccccc1)COC(=O)Nc1ccccc1 | growth inhibition | -2.3 |
| CCOC(=O)CC(CC(=O)OCC)(C(=O)OCC)C(=O)OCC | growth inhibition | 4.45 |
| CCCCCCCCCCOC(=O)C(C)O (stereo unspecified) | growth inhibition | 2.95 |
| CN1CCC(O)(C(C)(C)C)CC1 | growth inhibition | -5.15 |
| O=S(=O)(N=N/C=C1\C=CC=CN1O)c1cccs1 | growth inhibition | 6.3 |
| Cc1sc2c(c1C)C(=O)c1cccn1-2 | growth inhibition | -27.8 |
| O=C(c1ccc(F)cc1)c1c[nH]c(=O)[nH]c1=O | growth inhibition | -18.1 |
| Cc1ccc2c(c1)C(c1ccccc1)(c1ccccc1)N(c1ccccc1)S2(=O)=O | growth inhibition | 34.2 |
| O=S1CCS(=O)CCS(=O)CC1 (stereo unspecified) | growth inhibition | -2.3 |
| C/C(N=NS(=O)(=O)c1c(C)cc(C)cc1C)=C1\C=CC=CN1O | growth inhibition | -10.2 |
| CC1=C[C@@H]2[C@@H](CC(CO)=C[C@H]3[C@@H]4C(C)(C)[C@]4(OCC(C)C)[C@H](OCC(C)C)[C@@H](C)[C@]23O)C1=O | growth inhibition | -14.2 |
| O=C(Nc1ccc(N=C=S)cc1Cl)c1cc(Br)cc(Br)c1O | growth inhibition | 96.7 |
| CCCC(=O)C(C)C(=O)CC (stereo unspecified) | growth inhibition | -26.9 |
| O=C(N/C(=C\c1ccccc1[N+](=O)[O-])c1nc2ccccc2[nH]1)c1ccccc1 | growth inhibition | -1.45 |
| CC[N+](CC)(CC)CC(=O)c1ccc(Br)cc1 | growth inhibition | 12.7 |
| COc1cccc2c1C(=N)c1c(O)c3c(c(O)c1C2=O)C[C@@](O)(C(C)=O)C[C@@H]3OC1CC(N)C(O)C(C)O1 (stereo partly specified) | growth inhibition | -26.1 |
| CNCCC1CCCCCC1 | growth inhibition | 5.45 |
| CC(C)(Nc1nc2c(ncn2C2OC(CO)C(O)C2O)c(=O)[nH]1)P(=O)(O)O (stereo unspecified) | growth inhibition | -0.4 |
| CCOC(=O)c1cn(C2OC(COC(=O)c3ccccc3)C(OC(=O)c3ccccc3)C2OC(=O)c2ccccc2)c(=O)nc1N (stereo unspecified) | growth inhibition | -12.2 |
| CC(C)CC(CC(C)C)OB(OC(CC(C)C)CC(C)C)OC(CC(C)C)CC(C)C | growth inhibition | -15.3 |
| Cc1cccc(C(=O)OCCBr)c1 | growth inhibition | 3.95 |
| Brc1nc(-[n+]2ccccc2)[n-]c1Br | growth inhibition | 3.75 |
| [Cl][Pt+2][Cl].[NH-]c1cccc(C(F)(F)F)c1.[NH-]c1cccc(C(F)(F)F)c1 | growth inhibition | 12.2 |
| C/C(=N\N=P(c1ccccc1)(c1ccccc1)c1ccccc1)C(C)(C)C | growth inhibition | 10.2 |
| CSC1C(=O)Nc2ccccc21 (stereo unspecified) | growth inhibition | -17.6 |
| COC(=O)/C(=C\C(=O)c1ccc(Br)cc1)NN=C(c1ccccc1)c1ccccc1 | growth inhibition | -1.55 |
| C#CCCOC1(OC)N=NC(C)(C)O1 (stereo unspecified) | growth inhibition | 0.9 |
| CCCC(=O)OCC(O)CO (stereo unspecified) | growth inhibition | 1.5 |
| O=c1[nH]c(=O)n(C2CC3OCC3O2)cc1F (stereo unspecified) | growth inhibition | 35.7 |
| C=C(C)C(=O)NC(N)=NC#N | growth inhibition | -9.25 |
